Please go through the items and note down their recombinant barcode read abundance (log10).
Assay: recombinant barcode read abundance after kanamycin selection (control-corrected) (log10(CPM+1)); higher = more efficient recombination; sequences stand for … in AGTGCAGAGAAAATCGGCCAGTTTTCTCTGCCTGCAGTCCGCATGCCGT…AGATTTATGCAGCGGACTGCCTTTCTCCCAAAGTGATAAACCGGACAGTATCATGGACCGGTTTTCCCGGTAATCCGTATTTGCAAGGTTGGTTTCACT; site = the 11-nt target;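 further: IS621 recombinase and bridge RNA in Escherichia coli cells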
The reply should be a number, written without any unit.

Item ATAAAAGCTTGGGTTCTAACCTGTTGCCT (site ATAACAGCTAG) : provide recombinant barcode read abundance (log10)
0.0538

Item CCGTAACCTTGGGTTCTAACCTGTTGCCT (site CCGTAATCTAG) : provide recombinant barcode read abundance (log10)
0.237

Item TCGCCTTCTTGGGTTCTAACCTGTTGCCT (site TTGCCTTCTAG) : provide recombinant barcode read abundance (log10)
0.0934

Source listed as the supplement of paper PMC11208160.
